I'd appreciate it if you could supply pIC50 values for the items below.
Molecular target: T1, integrin αvβ8 (human, UniProt P06756)
T1 chain 1: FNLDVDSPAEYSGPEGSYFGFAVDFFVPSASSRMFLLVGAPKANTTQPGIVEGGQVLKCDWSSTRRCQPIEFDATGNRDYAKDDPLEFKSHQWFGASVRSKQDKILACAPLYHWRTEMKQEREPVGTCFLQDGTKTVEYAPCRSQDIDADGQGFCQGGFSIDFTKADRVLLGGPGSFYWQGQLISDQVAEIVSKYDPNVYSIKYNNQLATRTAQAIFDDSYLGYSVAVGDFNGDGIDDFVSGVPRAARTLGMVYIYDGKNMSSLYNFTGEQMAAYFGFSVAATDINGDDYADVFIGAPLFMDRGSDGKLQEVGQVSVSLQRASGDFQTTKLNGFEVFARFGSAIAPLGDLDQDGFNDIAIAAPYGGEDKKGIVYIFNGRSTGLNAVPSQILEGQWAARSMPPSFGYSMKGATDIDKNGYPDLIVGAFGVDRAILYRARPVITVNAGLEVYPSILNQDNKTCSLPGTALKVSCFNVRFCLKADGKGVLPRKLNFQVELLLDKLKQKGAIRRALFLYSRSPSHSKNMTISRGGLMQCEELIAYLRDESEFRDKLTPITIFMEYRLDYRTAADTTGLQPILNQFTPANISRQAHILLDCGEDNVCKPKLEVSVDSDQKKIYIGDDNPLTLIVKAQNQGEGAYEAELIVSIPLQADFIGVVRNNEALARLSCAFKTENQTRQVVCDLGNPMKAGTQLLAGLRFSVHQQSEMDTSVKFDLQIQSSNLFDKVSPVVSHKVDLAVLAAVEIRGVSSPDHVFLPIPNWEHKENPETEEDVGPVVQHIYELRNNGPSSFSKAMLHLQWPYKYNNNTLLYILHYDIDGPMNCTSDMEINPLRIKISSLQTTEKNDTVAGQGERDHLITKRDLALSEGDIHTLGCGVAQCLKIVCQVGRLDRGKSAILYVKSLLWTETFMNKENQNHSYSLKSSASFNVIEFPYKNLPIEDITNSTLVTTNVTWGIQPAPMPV
T1 chain 2: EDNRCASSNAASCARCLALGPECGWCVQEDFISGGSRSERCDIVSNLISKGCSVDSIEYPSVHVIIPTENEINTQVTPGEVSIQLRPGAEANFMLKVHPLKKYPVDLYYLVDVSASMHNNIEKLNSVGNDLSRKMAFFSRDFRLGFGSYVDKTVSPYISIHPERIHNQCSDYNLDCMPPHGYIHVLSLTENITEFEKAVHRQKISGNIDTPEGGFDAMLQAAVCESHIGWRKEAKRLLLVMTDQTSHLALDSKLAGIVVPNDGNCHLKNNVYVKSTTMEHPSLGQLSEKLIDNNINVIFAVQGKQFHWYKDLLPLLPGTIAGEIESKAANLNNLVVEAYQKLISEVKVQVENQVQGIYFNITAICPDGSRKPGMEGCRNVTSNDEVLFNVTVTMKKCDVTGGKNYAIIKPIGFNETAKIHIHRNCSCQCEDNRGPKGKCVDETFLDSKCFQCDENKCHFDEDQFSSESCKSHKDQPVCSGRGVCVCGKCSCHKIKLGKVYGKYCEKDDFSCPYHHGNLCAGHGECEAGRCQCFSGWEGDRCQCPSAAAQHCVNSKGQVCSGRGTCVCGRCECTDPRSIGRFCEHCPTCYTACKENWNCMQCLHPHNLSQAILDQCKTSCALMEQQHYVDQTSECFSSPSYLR
Experiment: competition
[ ]: non-standard residue; d: D form. N‑Me‑Lys‑pentyne = N-methyl-lysine carrying a pentyne (alkyne) group; Pro‑4‑NH‑hexyne = not defined here; NMeK = CN[C@@H](CCCCN)C(=O)O
Note on pIC50: it is the negative log10 of concentration, concentration in mol/L.

Please indicate pIC50 recorded for cyclo(RGDL[dP]PAL) (SMILES CC(C)C[C@@H]1NC(=O)[C@H](C)NC(=O)[C@@H]2CCCN2C(=O)[C@H]2CCCN2C(=O)[C@H](CC(C)C)NC(=O)[C@H](CC(=O)O)NC(=O)CNC(=O)[C@H](CCCNC(=N)N)NC1=O) [Compound 7]
8.88

Please indicate pIC50 recorded for cyclo(RGDL[dP]PAL) (SMILES CC(C)C[C@@H]1NC(=O)[C@H](C)NC(=O)[C@@H]2CCCN2C(=O)[C@H]2CCCN2C(=O)[C@H](CC(C)C)NC(=O)[C@H](CC(=O)O)NC(=O)CNC(=O)[C@H](CCCNC(=N)N)NC1=O) [Compound 1]
8.85

Please indicate pIC50 recorded for cyclo(RGDL[dP]PAF) [Compound 13 (Table 1)]
8.74

Please indicate pIC50 recorded for cyclo(RGDL[dP][NMeK]GL) (SMILES CC(C)C[C@@H]1NC(=O)CNC(=O)[C@H](CCCCN)N(C)C(=O)[C@H]2CCCN2C(=O)[C@H](CC(C)C)NC(=O)[C@H](CC(=O)O)NC(=O)CNC(=O)[C@H](CCCNC(=N)N)NC1=O) [Compound 8]
8.19

Please indicate pIC50 recorded for cyclo(RGDL[dP]PSL) (SMILES CC(C)C[C@@H]1NC(=O)[C@H](CO)NC(=O)[C@@H]2CCCN2C(=O)[C@H]2CCCN2C(=O)[C@H](CC(C)C)NC(=O)[C@H](CC(=O)O)NC(=O)CNC(=O)[C@H](CCCNC(=N)N)NC1=O) [Compound 3]
7.90

Please indicate pIC50 recorded for cyclo(RGDL[dP][N‑Me‑Lys‑pentyne]GL) [Compound 11 (Table 1)]
8.77

Please indicate pIC50 recorded for cyclo(RGDL[dP][Pro‑4‑NH‑hexyne]GL) (reading uncertain) [Compound 12 (Table 1)]
8.06

Please indicate pIC50 recorded for cyclo(RGDL[dP]PAY) (SMILES CC(C)C[C@@H]1NC(=O)[C@H](CC(=O)O)NC(=O)CNC(=O)[C@H](CCCNC(=N)N)NC(=O)[C@H](Cc2ccc(O)cc2)NC(=O)[C@H](C)NC(=O)[C@@H]2CCCN2C(=O)[C@H]2CCCN2C1=O) [Compound 4]
8.96
